Attribute: melting point

• c1ccc(C2CCc3ccccc3S2)cc1 (stereo not drawn) = 45 to 49 °C
• O=C(O)Cc1ccc(I)c(OCC(F)(F)F)c1 = 153 to 154 °C
• O=C(O)c1cc(OCCCCCCCCCCCCOc2ccccc2)ccc1OCc1ccccc1 = 85 to 87 °C
• Cn1c(COc2ccc(CC3SC(=O)NC3=O)cc2)nc2ccc(Oc3ccc4cccc(NC(=O)NS(=O)(=O)c5ccccc5)c4c3)cc21 (stereo not drawn) = 199 to 205 °C
• CCCn1c(=O)c2[nH]c(/C=C/c3ccc(C)c(C)c3)nc2n(CCC)c1=O = 253 to 254 °C
• COc1cc(I)c(I)cc1OC = 134 to 136 °C
• COc1ccc2c(C)c(CCOS(C)(=O)=O)c(=O)oc2c1 = 174 to 175 °C

Kindly consider the entry below.
Q. Give reported melting point value for "CSc1nc(Cl)c2ncccc2n1"
A. 120 to 121 °C
